Please go through the items and note down their viability.
Assay: HUVEC growth inhibition – cell-based, human, primary screen (AID 575);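 further: 100% = median of untreated cell wells with 0.1% DMSO on each plate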
Settings: HUVEC proliferation, CellTiter-Glo luminescence, 72 h; at 10 µM; stronger effect = lower value
Give the value, in units of %, as a plain number.

Ask: Input CCOc1cc(C(=O)N(C)Cc2cc3cc(OC)ccc3[nH]c2=O)cc(OCC)c1OCC , output reported viability.
Reply: 114

Ask: Identify viability associated with the compound O=C(CCn1c(=O)oc2ccccc21)NCCN1CCc2ccccc2C1
Reply: 95.2

Ask: Identify the reported viability for the following entry. N#CC1=C(SCc2ccccc2)NC(=O)C(C#N)C12CCCC2 (stereo unspecified)
Reply: 72.7

Ask: Give the reported value of viability for this record: CC(=O)OC1CSc2nc3ccccc3n2C1 (stereo unspecified)
Reply: 111

Ask: Check the records and state viability for CCn1c2ccccc2c2cc(NC(=O)Cc3ccc(S(=O)(=O)N4CCOCC4)s3)ccc21
Reply: 9.02

Ask: Check the records and state viability for CCN(CC)S(=O)(=O)c1ccc2oc(C(=O)O)c(C)c2c1
Reply: 102

----------
Experiment: reversal of MRP1-mediated doxorubicin resistance, pilot screen, H69AR cells, doxorubicin co-treatment (AID 601)
Conditions: H69AR cells, CellTiter-Glo, 72 h; compound alone cytotoxicity; at 10 µM
With a cut-off of 90%, any viability strictly below it is called criterion met; any viability meeting it or above is called criterion not met.

Ask: Take the compound O=c1c(O)c(-c2ccc(O)cc2O)oc2cc(O)cc(O)c12 and say whether its viability is less than 90%.
Reply: criterion not met

Ask: Consider the compound Cc1cccc(OCC(=O)Nc2cc(C)ccc2O)c1 . Is its viability strictly less than 90%?
Reply: criterion met

Ask: A record lists Cc1c(NC(=O)c2coc(=O)c(Br)c2)c(=O)n(-c2ccccc2)n1C . Is its viability below 90%?
Reply: criterion met

Ask: Consider CCCCn1cnc2c(c1=O)c1nc3ccccc3nc1n2Cc1ccc2c(c1)OCO2 . Does its viability lie strictly below 90%?
Reply: criterion met

Ask: Would you kindly verify if viability of CS(=O)(=O)N(CC(=O)Nc1cccc(F)c1)Cc1ccccc1 is strictly less than 90%?
Reply: criterion not met

Ask: Could you please tell me whether viability recorded for COc1ccccc1N(C)S(=O)(=O)c1ccc(C(=O)NC2=NCCS2)cc1 is less than 90%?
Reply: criterion not met

Ask: Strictly below 90% in viability? O=C(c1cccc(C(=O)N2CCN(c3ccc(F)cc3)CC2)c1)N1CCN(c2ccc(F)cc2)CC1
Reply: criterion met

Ask: For Cc1ccc(-c2nc3cc(NC(=O)C(C)C)ccc3o2)cc1C , is the recorded viability below the cut-off of 90%?
Reply: criterion met

Ask: Item COc1ccc(CN(C(=O)c2ccccc2OC)C2CCS(=O)(=O)C2)cc1 (stereo unspecified) : viability beneath 90%, strictly?
Reply: criterion not met

Ask: In the record for CCOCCCNC(=O)C1CCN(S(=O)(=O)c2c(C)noc2/C=C\c2ccc(OC)cc2)CC1 , is viability less than 90%?
Reply: criterion not met

Ask: viability strictly < 90% for this compound? Cc1ccccc1Cn1nc(C)c(NC(=O)c2noc3c2CCCC3)c1C
Reply: criterion not met

Ask: Dear colleague, could you confirm whether viability of OCCN1CCN(CCCN2c3ccccc3Sc3ccc(Cl)cc32)CC1 falls below 90%? Thanks.
Reply: criterion met

Ask: Does the reported viability of COc1ccc(CCNc2oc(COc3ccc(F)cc3)nc2C#N)cc1 stay below 90%?
Reply: criterion not met

Ask: Consider the compound CCn1cc(C(=O)OCc2ccc(F)cc2)c(=O)c2ccc(C)nc21 . Is its viability strictly less than 90%?
Reply: criterion met

Ask: Determine whether this compound shows viability lower than 90% (ties excluded): O=C(NCc1cccs1)C1CC(c2ccccc2O)=NO1 (stereo unspecified)
Reply: criterion not met

Ask: Is it true that viability reported for CCOC(=O)Nc1nnc(-c2ccccc2OC)s1 is less than 90%?
Reply: criterion not met

Ask: Dear colleague, could you confirm whether viability of COc1ccc(Cl)cc1NC(=O)COc1cccc(-n2cnnn2)c1 falls below 90%? Thanks.
Reply: criterion met

Ask: Regarding CC(=O)Nc1ccc(N=Cc2nc(-c3ccc(C)cc3)oc2O)cc1 , kindly confirm whether its viability is beneath 90%.
Reply: criterion not met

Ask: Record O=C(Nc1nccs1)c1ccc(Cl)c(S(=O)(=O)N2CCCCC2)c1 : is its viability strictly below 90%?
Reply: criterion met

Ask: Check if viability falls below 90% for C=CCSc1nnc2n(CCc3ccccc3)c(=O)c3c4c(sc3n12)COC(C)(C)C4 .
Reply: criterion met

Ask: Does COc1ccc(CNc2oc(COc3ccccc3Cl)nc2C#N)cc1 have viability strictly under 90%?
Reply: criterion met

Ask: For this compound, is viability lower than 90%? CCCc1cc(Nc2cccc(OC)c2)n2ncnc2n1
Reply: criterion met

Ask: Dear reviewer, please state whether CCOc1ccc(-c2nc(N)ncc2-c2ccccc2)c(O)c1 has viability strictly beneath 90%.
Reply: criterion met

Ask: Does CCOc1ccccc1C1N(c2ccc(F)cc2)C(=O)C2CCCN21 (stereo unspecified) have viability strictly under 90%?
Reply: criterion not met

Ask: Could you please tell me whether viability recorded for CCCOc1cccc(NC(=O)c2c(-c3ccccc3)noc2C)c1 is less than 90%?
Reply: criterion met

Ask: Lab note: viability threshold 90%. Does this compound come in strictly under it? CC(C)(C)c1ccc(-c2nnc(SCCC#N)n2C2CCCC2)cc1
Reply: criterion met

Ask: Would you kindly verify if viability of c1ccc2c(c1)CCCC2C1=NCCN1 (stereo unspecified) is strictly less than 90%?
Reply: criterion not met

Ask: Does the reported viability of the following compound sit strictly below 90%? O=C(O)c1ccc(S(=O)(=O)Cc2ccccc2)cc1
Reply: criterion met

Ask: Answer whether the compound COCc1nnc(NC(=O)c2ccc(NC(C)=O)cc2)s1 has viability strictly less than 90%
Reply: criterion not met

Ask: Confirm or reject: viability of N#CC1=C(SCC(=O)NC23CC4CC(CC(C4)C2)C3)NC(=O)C(C#N)C12CCCCC2 (stereo unspecified) lies strictly below 90%
Reply: criterion met

Ask: Below 90% on viability? Entry Cc1ccc2cc(C(c3nnnn3CC3CCCO3)N3CCc4ccccc4C3)c(=O)[nH]c2c1 (stereo unspecified)
Reply: criterion not met

Ask: Dear reviewer, please state whether O=C(Cn1c(=O)[nH]c2ccsc2c1=O)N1CCN(c2ccc(F)cc2)CC1 has viability strictly beneath 90%.
Reply: criterion met

Ask: Problem: For the compound COc1cc2c(cc1OC)CN(CC(=O)Nc1cccc(C)c1)CC2 , is viability under 90%?
Reply: criterion not met

Ask: Record O=C(Cn1nnc2c(cnn2-c2ccc(F)cc2)c1=O)c1ccccc1F : is its viability strictly below 90%?
Reply: criterion met

Ask: For O=C1OCCC1Sc1ncnc2sccc12 (stereo unspecified) , is the recorded viability below the cut-off of 90%?
Reply: criterion not met

Ask: Dear reviewer, please state whether CCCCNC(=O)NS(=O)(=O)c1ccc(C)cc1 has viability strictly beneath 90%.
Reply: criterion not met

Ask: Consider CCn1c(=N)n(CC(=O)c2ccco2)c2ccccc21 . Does its viability lie strictly below 90%?
Reply: criterion met

----------
Test: reversal of MRP1-mediated doxorubicin resistance, pilot screen, H69AR cells, doxorubicin co-treatment (AID 601)
Conditions: H69AR cells + 2 uM doxorubicin, CellTiter-Glo, 72 h; measured here: viability with 2 uM doxorubicin; at 10 µM; stronger effect = lower value
Field: viability. Provide a value for each of the compounds that follow.
Give the number; % is assumed, so skip it.

Ask: Consider the compound COc1ccc(C2C(C(=O)c3sc(C)nc3C)=C(O)C(=O)N2CCN(C)C)cc1 (stereo unspecified) . State its measured viability.
Reply: 80.7

Ask: Complete the entry with viability for N#Cc1c(N2CCOCC2)nc(N2CCCCC2)c2c1CCN(C1CCCCC1)C2
Reply: 71.6

Ask: Report measured viability; entry is O=C(Cn1c(=O)n(CC2CCCO2)c(=O)c2ccccc21)c1ccccc1 (stereo unspecified)
Reply: 89

Ask: Let me know recorded viability for Cn1c(=O)c(C(=S)NC(=O)C2CC2)c(N)n(Cc2ccccc2)c1=O , thanks.
Reply: 84.7

Ask: State its viability for this compound: COCC(=O)Nc1cc(OC)ccc1OC
Reply: 96.1

Ask: # return recorded viability for input CCn1cnc2cc(NCc3cccc(OC)c3O)ccc21
Reply: 86.3

Ask: Hello, please tell me recorded viability for this one: CCOc1cc(/C=N/n2cnnc2)cc(Br)c1O
Reply: 91.8

Ask: Specify viability for Nc1nonc1-n1nnc(C(=O)c2ccccc2)c1-c1ccccc1 and stop.
Reply: 91.4

Ask: Return viability (reported value) for this compound: O=C(CN1CCN(c2nc(-c3ccc(F)cc3)cs2)CC1)NCc1ccc2c(c1)OCO2
Reply: 75.2

Ask: Identify measured viability corresponding to O=C(CCNC(=O)c1ccc(Br)o1)NC1CCCC1
Reply: 78.2

Ask: Output measured viability for this item: COc1cccc2cc(C(=O)N3CCc4ccccc43)c(=O)oc12
Reply: 90

Ask: State its viability for this compound: CC(=O)C1=C(C)NC(=O)NC1c1cccc(O)c1 (stereo unspecified)
Reply: 86.3

Ask: In one line, give reported viability of the entry COCCCC/C(=N\OCCN)c1ccc(C(F)(F)F)cc1 .
Reply: 83.9

Ask: Return viability for the following compound: Cc1cc(C)nc(NS(=O)(=O)c2ccc(NC(=O)Cn3c(=O)oc4ccccc43)cc2)n1
Reply: 84.2

Ask: Consider the compound CCOC(=O)c1ccc(NC(=O)N2CCN(Cc3cccc(F)c3)CC2)cc1 and give its recorded viability.
Reply: 93.6

Ask: Report viability for CCCCNC(=O)C(C#N)c1nc2ccccc2nc1N1CCCC1 (stereo unspecified)
Reply: 102

Ask: For the compound CSC1=C(C#N)C(C)CC(=O)N1 (stereo unspecified) , report viability.
Reply: 105

Ask: Specify measured viability for COc1ccc(-n2c(SCC(=O)N3CCCCC3C)nnc2-c2cccnc2)cc1 (stereo unspecified) .
Reply: 91.1

Ask: Tell me its viability given CCCCC[C@H](O)/C=C/C1=C(CCCCCCC(=O)O)C(=O)CC1 as the entry.
Reply: 102

Ask: Supply recorded viability for CC1CCCC(C)N1C(=O)CSc1nnc(-c2cccs2)o1 (stereo unspecified) here.
Reply: 96.8

Ask: # return recorded viability for entry Cc1ccc(-n2c(SCC3CCCCO3)nnc2-c2ccco2)cc1 (stereo unspecified)
Reply: 75.9

Ask: Look up viability of O=C(CCCNS(=O)(=O)c1ccccc1)NCc1ccco1 and report it.
Reply: 92.7

Ask: Consider the compound O=C(NCC1CCCO1)c1cccc(N2CCCC2=O)c1 (stereo unspecified) . State its measured viability.
Reply: 91

Ask: Give the measured viability for COc1ccc(NC(=O)CSc2ccccn2)cc1OC
Reply: 74.9

Ask: For the compound CCOC(=O)C1(C(=O)OCC)C(c2ccccc2)CC(O)N1C(C)=O (stereo unspecified) , give its reported viability.
Reply: 80

Ask: Indicate its recorded viability; the compound in question is Cc1ccnc(NS(=O)(=O)c2ccc(N=CC3=C(O)CC(C)(C)CC3=O)cc2)n1
Reply: 97.5

Ask: Look up and report measured viability for this entry: Cc1c(Cc2ccccc2)sc(N)c1C(N)=O
Reply: 90.6

Ask: Please look at this compound and report its viability: CCOC(=O)N1CCN(CCC(=O)c2ccc(Cl)cc2)CC1
Reply: 17.9

Ask: Note down viability recorded for COc1cccc(OCc2nnc(SCC(=O)OCc3ccccc3)o2)c1
Reply: 91.2

Ask: Tell me its viability given Nc1ccc(S(=O)(=O)c2ccc(N)cc2)cc1 as the entry.
Reply: 87.1

Ask: Output measured viability for this item: CC(=O)c1c(O)cc(C)n(Nc2nc(C)cc(C)n2)c1=O
Reply: 100

Ask: Annotate the compound Cc1c(C(=O)NCc2ccccn2)oc2ccccc12 with its measured viability.
Reply: 80.5

Ask: Give viability for O=C(CS(=O)(=O)c1cn(Cc2ccc(Cl)cc2)c2ccccc12)N1CCOCC1
Reply: 88.6

Ask: Please look at this compound and report its viability: COc1ccc(C(C)(C)C)cc1NC(=O)Nc1ccc2c(c1)OCO2
Reply: 57.2

Ask: Return viability for the following compound: O=C(CSc1nnc(Cc2ccccc2)n1-c1cccc(Cl)c1)N1CCOCC1
Reply: 81.3

Ask: For the compound O=C(C1CCN(C2CC(=O)N(c3ccc(F)cc3)C2=O)CC1)N1CCOCC1 (stereo unspecified) , give its reported viability.
Reply: 96.2

Ask: Quick one: give measured viability for O=C(NC12CC3CC(CC(C3)C1)C2)N1CCN(C(=O)C2CCCO2)CC1 (stereo unspecified)
Reply: 84.4

Ask: Give a short answer stating reported viability for O=C(NS(=O)(=O)c1ccc(NC(=O)C2CCCO2)cc1)c1ccccc1 (stereo unspecified) .
Reply: 88.7

Ask: Hello, please tell me recorded viability for this one: CC(C)(C#N)Nn1cnnc1
Reply: 90.7

Ask: Report measured viability; entry is O=c1c2ccccc2nc(SCc2nnc(-c3ccccc3Br)o2)n1-c1ccccc1
Reply: 87.5

Ask: Determine from records and report viability for O=C(NCC12CC3CC(C1)CC(CNC(=O)N1CCCC1)(C3)C2)N1CCCC1
Reply: 89.5

Ask: Tell me its viability given CCN(C(=O)c1c(OC)cccc1OC)c1nnc(-c2cccnc2)s1 as the entry.
Reply: 90.8

Ask: Give the reported viability for this compound. N#Cc1ccc(CSc2nnc(-c3ccccn3)n2-c2ccccc2)cc1
Reply: 89.1

Ask: Annotate the compound COC(=O)c1ccc(Oc2nc(NC(C)C)nc(N(C)C)n2)cc1 with its measured viability.
Reply: 97.1

Ask: For the compound Fc1ccc(-c2nnc(CN3CCN(c4ncc(C(F)(F)F)cc4Cl)CC3)o2)cc1 , give its reported viability.
Reply: 91.3

Ask: Consider the compound Cc1cc(C(=O)Nc2ccc(S(=O)(=O)Nc3onc(C)c3C)cc2)cs1 . State its measured viability.
Reply: 96.4

Cited source: PubChem BioAssay
